Exercise: state measured melting point for each of the compounds provided.

# input Assign melting point to the following record: CC(C)(C(=O)O)c1ccc(C(=O)Nc2cn3cc(-c4ccoc4)ccc3n2)cc1
# output 307 to 309 °C

# input Item CCOC(=O)c1cc2n(c1)C(C)N(C(=O)OCC)c1ccccc1-2 (centres undefined) : provide melting point
# output 125 to 127 °C

# input Consider the compound CCOC(=O)c1cnn(-c2ccc3ccccc3n2)c1S(N)(=O)=O . State its measured melting point.
# output 140 to 141 °C

# input Answer with the recorded melting point for the compound listed here: CNC(=O)CC1CCN(Cc2cnc3c(C)c(NC(=O)c4ccc(-c5ccc(F)cc5)cc4)ccc3c2)CC1
# output 229 to 231 °C

# input Input COc1ccc(C=CC(=O)c2c(OC)cc(OC)cc2OC(=O)c2cccnc2)cc1 , output reported melting point.
# output 55 to 60 °C

# input Identify melting point associated with the compound N#Cc1ccccc1OC[C@H]1CO1
# output 84 to 86 °C

# input Supply measured melting point of Cc1nc(-c2ccc(-c3ccc(C(=O)Nc4ccc(Br)c(OCCN(C)C)c4)cc3)c(C)c2)no1 in your reply.
# output 138 to 140 °C

# input Please supply the value of reported melting point for the item O=C(O)CCCCCCCCCCC(=O)c1ccccc1
# output 83 to 86 °C

# input Read off the recorded melting point for O=C(Nc1c(C(O)(C(F)(F)F)C(F)(F)F)ccc2ccccc12)c1cccc(F)c1
# output 190 to 192 °C

Hey, just so you know, these numbers are from a melting point compilation (Tetko et al.; mined from patent text by program, amines drawn as free bases though some values may be those of a salt).
